Where these numbers come from: ChEMBL document CHEMBL1131296

target: D(2) dopamine receptor (Rattus norvegicus, UniProt P61169); assay: Binding affinity at native Dopamine receptor D2 in rat striatum by [3H]spiperone displacement.; assay type: tissue-based
Sequence (P61169 whole entry): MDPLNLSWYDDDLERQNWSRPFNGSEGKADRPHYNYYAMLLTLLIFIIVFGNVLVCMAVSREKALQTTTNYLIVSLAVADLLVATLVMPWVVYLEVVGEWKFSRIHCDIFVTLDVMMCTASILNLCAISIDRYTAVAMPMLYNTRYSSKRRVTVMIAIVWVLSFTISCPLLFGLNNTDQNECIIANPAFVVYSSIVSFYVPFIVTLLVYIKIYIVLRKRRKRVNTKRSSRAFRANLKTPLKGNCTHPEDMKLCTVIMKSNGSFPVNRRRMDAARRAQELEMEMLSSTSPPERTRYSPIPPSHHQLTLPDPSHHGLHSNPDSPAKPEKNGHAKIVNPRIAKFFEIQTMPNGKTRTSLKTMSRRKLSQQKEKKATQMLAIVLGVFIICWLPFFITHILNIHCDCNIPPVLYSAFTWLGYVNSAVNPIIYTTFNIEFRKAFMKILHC
observation_type: pKi
// pKi is dimensionless: -log10 of concentration (M)

Data request: // pKi lookup, key: COc1cc2nc(N(C)CCCCCCN(C)C(=O)c3cccc(CN(C)C)c3)nc(N)c2cc1OC
Data returned: 5.71

---

Overview of reported log10 of Kb across a group of compounds:
biological target: Alpha-1A adrenergic receptor (Rattus norvegicus); experiment: Antagonism of the norepinephrine induced contraction of rat isolated prostatic vas deferens.; format: functional; conditions: read-out: pA2 (converted)
Sequence (P43140 whole entry): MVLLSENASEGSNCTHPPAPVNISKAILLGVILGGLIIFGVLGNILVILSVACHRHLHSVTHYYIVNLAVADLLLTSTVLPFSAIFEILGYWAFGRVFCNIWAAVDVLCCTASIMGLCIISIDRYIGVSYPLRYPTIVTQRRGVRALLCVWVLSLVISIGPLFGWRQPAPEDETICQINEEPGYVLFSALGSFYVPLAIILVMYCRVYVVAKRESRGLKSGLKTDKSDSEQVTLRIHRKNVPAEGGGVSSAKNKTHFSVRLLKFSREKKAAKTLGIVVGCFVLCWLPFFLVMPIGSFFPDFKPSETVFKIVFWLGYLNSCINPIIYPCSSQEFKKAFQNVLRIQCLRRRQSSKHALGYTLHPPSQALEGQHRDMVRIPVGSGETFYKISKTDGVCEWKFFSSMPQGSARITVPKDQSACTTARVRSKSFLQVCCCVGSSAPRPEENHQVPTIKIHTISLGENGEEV
Form field - Quantity: Kb; Unit: nM; Scale: log10

COc1cc2nc(N(C)CCCCCCN(C)C(=O)c3ccc(CCl)o3)nc(N)c2cc1OC: 0.83

Data request: // log10 of Kb lookup, key: COc1cc2nc(N(C)CCCCCCN(C)C(=O)c3cccc(CN4CCSC4)c3)nc(N)c2cc1OC
Data returned: 1.18

Data request: Queued: COc1cc2nc(N(C)CCCCCCN(C)C(=O)c3ccc(CN4CCSC4)cc3)nc(N)c2cc1OC
Data returned: 1.77

Data request: Queued: COc1cc2nc(N(C)CCCCCCN(C)C(=O)c3ccccc3CN(C)C)nc(N)c2cc1OC
Data returned: 1.96

Data request: Queued: COc1cc2nc(N(C)CCCCCCN(C)C(=O)c3ccc(CN(C)C)o3)nc(N)c2cc1OC
Data returned: 1.59
